tested on: CHO-AA8; assay: Concentration of the drug to inhibit chinese hamster ovary derived cell (AA8) growth in culture; type: functional, cell-based; details: Cricetulus griseus
pIC50 values, listed per item
In textbook form, pIC50 equals minus log to base ten of the concentration in mol/L.

Example compounds with recorded pIC50:
- CN1CCN(c2ccc3[nH]c(-c4ccc5[nH]c(CCCCCCc6ccc(N(CCCl)CCCl)cc6)nc5c4)nc3c2)CC1: 6.40
- CN1CCN(c2ccc3[nH]c(-c4ccc5[nH]c(Cc6ccc(N(CCCl)CCCl)cc6)nc5c4)nc3c2)CC1: 5.82
- CN1CCN(c2ccc3[nH]c(-c4ccc5[nH]c(-c6ccc(N(CCCl)CCCl)cc6)nc5c4)nc3c2)CC1: 5.77
- CN1CCN(c2ccc3[nH]c(-c4ccc5[nH]c(CCc6ccc(N(CCCl)CCCl)cc6)nc5c4)nc3c2)CC1: 6.48
- CN1CCN(c2ccc3[nH]c(-c4ccc5[nH]c(-c6ccc(N(C)CCCl)cc6)nc5c4)nc3c2)CC1: 5.24

Summary for this compound, CCN(CC)c1ccc(-c2nc3cc(-c4nc5cc(N6CCN(C)CC6)ccc5[nH]4)ccc3[nH]2)cc1 : pIC50 is 5.00

Summary for this compound, CN1CCN(c2ccc3[nH]c(-c4ccc5[nH]c(CCCc6ccc(N(CCCl)CCCl)cc6)nc5c4)nc3c2)CC1 : pIC50 is 5.88
